Here we gather IC50 data for UniProt:P03951 reported by several publications.
The figure you give is taken to be in nM; do not add the unit.

Solved cases (6 shown):
CCC(c1ccnc(C(F)(F)F)c1)n1cc(C(=O)N2CCC[C@@]3(C2)OC(=O)Nc2ccc(Cl)c(F)c23)cn1 (single isomer, unassigned): 1450
Nc1cc(-c2ccccc2C(F)(F)F)nn1CC(=O)N1CC[C@@]2(C1)OC(=O)Nc1ccc(Cl)c(F)c12: 422
Cc1cc(Cn2ncc(NC(=O)c3nc(-c4c(C(F)F)ccc(Cl)c4F)cnc3C)n2)cnc1N1C[C@H]2C[C@H]2C1=O: 5670
Cc1ncc(-c2c(C(F)F)ccc(Cl)c2F)nc1C(=O)Nc1cnn(C(C)c2ncc(N3C[C@H]4C[C@H]4C3=O)cc2Cl)c1 (single isomer, unassigned): 7300
COc1cn(C(CC2=NOCCC2)C(=O)Nc2ccc3nn(C)cc3c2)c(=O)cc1-c1cc(Cl)ccc1OCC(F)(F)F (racemic): 36
O=C(Cc1ccc(-c2cc(Cl)ccc2C(F)F)c[n+]1[O-])Nc1ccc(C(=O)O)cc1: 388

(Q) Hi! What's the reported IC50 for Cc1nc(N2C[C@H]3C[C@H]3C2=O)ncc1[C@H](C)n1cc(NC(=O)c2cncc(-c3c(C(F)F)ccc(Cl)c3F)n2)cn1 on UniProt:P03951?
(A) 2730

(Q) Missing value: IC50, UniProt:P03951, entry COCC(c1ccccc1)c1n[nH]c(C(=O)N2CCC[C@@]3(C2)OC(=O)Nc2ccc(Cl)c(F)c23)n1 (some centres unmarked) . Fill in?
(A) 1360

(Q) # returns recorded IC50 (system: UniProt:P03951) for Nc1c(C(=O)N2CCC[C@@]3(C2)OC(=O)Nc2ccc(Cl)c(F)c23)cnn1C(C(F)(F)F)C1(F)CC1 (single isomer, unassigned)
(A) 42

(Q) Form field: IC50 recorded for O=C(O)c1ccc(NC(=O)C(CC2CC2)c2ccc(-c3cc(Cl)ccc3-n3cnnn3)c[n+]2[O-])cc1F (single isomer, unassigned) with UniProt:P03951 (enter value)
(A) 0.07

(Q) Reported IC50 for UniProt:P03951, given CN1Cc2c(c(-c3cc(Cl)ccc3Cl)cc(=O)n2CC(=O)Nc2ccc(-c3nnn[nH]3)cc2)C1=O ?
(A) 340

(Q) Field: IC50 (UniProt:P03951). Entry: O=C(O)c1nccc(-c2cnc([C@@H]3CC[C@@H]4CC(c5c(-n6cnnn6)ccc(Cl)c5F)=CC(=O)N43)[nH]2)c1F
(A) 0.3

(Q) Notebook entry, UniProt:P03951 assay: IC50 of Nc1cc(-c2ccccc2OC(F)(F)F)nn1CC(=O)N1CC[C@@]2(C1)OC(=O)Nc1ccc(Cl)c(F)c12 = ?
(A) 287

(Q) Lab request: please report IC50 under test system UniProt:P03951 for Nc1c(C(=O)N2CCC[C@@]3(C2)OC(=O)Nc2ccc(Cl)c(F)c23)cnn1-c1ccc(C(=O)O)cc1
(A) 378

(Q) Param readout = IC50; param system = UniProt:P03951; param query = Cc1ncc(-c2c(OC(F)F)ccc(Cl)c2F)nc1C(=O)Nc1cnn(C(C)c2cnc(N3C[C@H]4C[C@H]4C3=O)c(F)c2C)c1 (single isomer, unassigned) ; response: value
(A) 549

(Q) State its IC50 on UniProt:P03951: Cc1cc(C(Cc2ccccc2)C(=O)Nc2ccc(C(=O)O)cc2)[n+]([O-])cc1-c1c(F)ccc(Cl)c1F (centres unmarked)
(A) 8.32

(Q) Requested read-out IC50, target or system UniProt:P03951, entry O=C(Nc1ccc2ncc(F)cc2c1)[C@@H]1CC[C@@H]2CC(c3c(-n4cnnn4)ccc(Cl)c3F)=CC(=O)N21
(A) 10.8

(Q) Lab note: need IC50 for COc1cn(C(CCOC(C)(C)C)C(=O)Nc2ccc(C(N)=O)nc2)c(=O)cc1-c1cc(Cl)ccc1OCC(F)F (racemic) on UniProt:P03951, anyone have it?
(A) 18

(Q) Find IC50 (UniProt:P03951) for the entry Nc1c(C(=O)N2CCC[C@@]3(C2)OC(=O)Nc2ccc(Cl)c(F)c23)cnn1-c1cc(F)ccc1Cl
(A) 813
